- system: Beta-2 adrenergic receptor (Homo sapiens) (UniProt P07550)
- Sequence (P07550 whole entry, looked up): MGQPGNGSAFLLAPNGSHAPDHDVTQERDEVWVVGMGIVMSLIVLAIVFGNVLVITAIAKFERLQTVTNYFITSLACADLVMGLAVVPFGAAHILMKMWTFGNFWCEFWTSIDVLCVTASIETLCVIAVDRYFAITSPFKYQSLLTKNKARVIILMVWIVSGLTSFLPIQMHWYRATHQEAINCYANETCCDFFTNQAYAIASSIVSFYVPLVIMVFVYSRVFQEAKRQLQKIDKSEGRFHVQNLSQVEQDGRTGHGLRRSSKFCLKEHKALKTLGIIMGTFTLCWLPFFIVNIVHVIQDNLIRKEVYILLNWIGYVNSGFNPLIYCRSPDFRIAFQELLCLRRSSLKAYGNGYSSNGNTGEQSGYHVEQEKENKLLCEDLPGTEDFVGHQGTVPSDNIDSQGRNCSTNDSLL
- method description: qHTS assay of beta-arrestin-biased ligands of beta2-adrenergic receptor: Hit Validation
- stated conditions: cell-based beta-arrestin recruitment to beta2AR; activation; series mostly up to 46.1 µM
Out of some 1,200 compounds screened, about 15 (1%) were called active. Another 7% or so got no clear call; they are omitted. The full list was thinned out, with actives kept by preference.

# compound, outcome
measured = [
    ("COC(=O)N1C(=O)[C@@](c2ccc(OC)cc2)(C(C)C)N1C(=O)OC", "inactive"),
    ("Cc1ccc(S(=O)(=O)Nc2cccnc2)cc1", "inactive"),
    ("COc1ccc(NC(=O)c2cc3c(-c4ccc(OC)c(OC)c4)nn(C)c3s2)cc1OC", "inactive"),
    ("CCCCC(=O)/C=C/n1c(=S)oc2ccccc21", "inactive"),
    ("Cc1noc(/C=C/c2ccco2)c1S(=O)(=O)N1CCC(C(=O)N2CCc3ccccc3C2)CC1", "inactive"),
    ("CN(Cc1ccccc1)C(=O)CN1C(=O)c2ccccc2C1=O", "inactive"),
    ("CCNC(=S)N/N=C/c1cccs1", "inactive"),
    ("Cc1nc2ccc(NC(=O)CS(=O)(=O)c3ccccc3)cc2s1", "inactive"),
    ("CCOc1ccc(/C=N/NC(=S)NC2CC3CCC2C3)cc1 (centres undefined)", "inactive"),
    ("COc1cc(CN2CCCCC2C(=O)Nc2ccc(Oc3ccccc3)nc2)ccc1O (centres undefined)", "inactive"),
    ("CN(C)NC(=S)Nc1ccc(Cl)cc1", "inactive"),
    ("O=C(O)CCC(=O)N1N=C(c2ccccc2)CC1c1ccc2nccnc2c1 (centres undefined)", "inactive"),
    ("CCOC(=O)/C(C#N)=C/Nc1ccsc1C(=O)OC", "inactive"),
    ("Cc1ccccc1NC(=O)c1c([N+](=O)[O-])c(C(C)(C)C)nn1C", "inactive"),
    ("CCOC(=O)N1CCN(Cc2c(F)cccc2F)CC1", "inactive"),
    ("CCCCOc1ccc(C(O)(CCC)CCN2CCOCC2)cc1 (centres undefined)", "inactive"),
    ("CCCn1c(Nc2nc3ccccc3n2C)nc2ccccc21", "inactive"),
    ("COc1ccc(N2C(=O)C3C(C2=O)C(C(=O)c2ccccc2)N2CCCC32)cc1 (centres undefined)", "inactive"),
    ("O=C(CN1CCN(Cc2ccccc2)CC1)c1ccc(Br)cc1", "inactive"),
    ("C/C(=N\\NC(=S)NC(C)C)c1ccccc1", "inactive"),
    ("C=CCNC(=S)N/N=C/c1ccc(-c2cc(Cl)ccc2Cl)o1", "inactive"),
    ("COc1ccc(CN2CCCC(C(=O)c3ccc(SC)cc3)C2)cc1Cn1cccn1 (centres undefined)", "inactive"),
    ("COc1ccc(NC(=S)Nc2ccccn2)c(OC)c1", "inactive"),
    ("CCOC(=O)C1CCN(Cc2cnc(Oc3ccc(N)cc3)s2)CC1", "inactive"),
]
